method-summary: Pharmacokinetic study in rats (plasma, NCA)
run-conditions: rat, intravenous, 40 nmol/kg
readout-name: clearance (mL/min/kg)
Report only the number, with the unit mL/min/kg understood.

Query block: Find the recorded clearance belonging to CCCCCC(=O)N[C@H]1CSCc2cc(CSCCNC(=O)CN3CCN(CC(=O)O)CCN(CC(=O)O)CCN(CC(=O)O)CC3)cc(c2)CSC[C@@H](C(=O)O)NC(=O)[C@H](Cc2ccccc2)NC(=O)[C@H](CCC(N)=O)NC(=O)[C@H]([C@@H](C)O)NC(=O)[C@@H]2CCCN2C(=O)[C@@H]2CCCN2C1=O and report it.
Result block: 9.02

====

Below, each of the compounds is paired with its reported tissue uptake at 3 h value.
method-summary: in vivo
run-conditions: female, athymic nude, mouse, tumor, iv, uptake Tumor 3 h, ^68Ga-labeled; HEK-FAP tumor; PET/CT; 3 h post tracer injection
Numbered stars: 1 amine (or outer) side, 2 acyl side, 3 side chain; on linkers, the order of the positions; unused ones are H or OH. Bridge positions count the residues as written; N and C are the ends. Square brackets hold non-standard residues; d marks the D form. Peptide text beside a SMILES is read from it. * marks the point of attachment. ξ: configuration not given here. X7 = O=C(CCP(=O)(O)CN1CCN(CP(=O)(O)CO)CCN(CP(=O)(O)CO)CC1)NCCSCc1cc(C[*:1])cc(C[*:2])c1; X11 = O=C(O)CN1CCN(CC(=O)O)CCN(C(CCC(=O)NCCSCc2cc(C[*:1])cc(C[*:2])c2)C(=O)O)CC1; CO = O=C([*:1])[*:2]; ξC = NC(CS)C(=O)O; NHBu = CCCCN*

Use the examples below as a reference point.
compound="CCCCNC(=O)N[C@H]1CSCc2cc(CSCCNC(=O)CCC(C(=O)O)N3CCN(CC(=O)O)CCN(CC(=O)O)CC3)cc(c2)CSCC(C(=O)O)NC(=O)[C@H](Cc2ccccc2)NC(=O)[C@H](CCC(=O)O)NC(=O)[C@H]([C@@H](C)O)NC(=O)[C@@H]2CCCN2C(=O)[C@@H]2CCCN2C1=O (stereo partly drawn) [3BP-4724] ({NHBu-CO}-CPPTEF[ξC]-OH; linker 1-7 via X11)" result="4.46 %ID/g"
compound="CCCCNC(=O)N[C@H]1CSCc2cc(CSCCNC(=O)CCP(=O)(O)CN3CCN(CP(=O)(O)CO)CCN(CP(=O)(O)CO)CC3)cc(c2)CSCC(C(=O)O)NC(=O)[C@H](Cc2ccccc2)NC(=O)[C@H](CCC(=O)O)NC(=O)[C@H]([C@@H](C)O)NC(=O)[C@@H]2CCCN2C(=O)[C@@H]2CCCN2C1=O (stereo partly drawn) [3BP-4778] ({NHBu-CO}-CPPTEF[ξC]-OH; linker 1-7 via X7)" result="4.45 %ID/g"

Query block: Reported tissue uptake at 3 h, compound CCCCNC(=O)N[C@H]1CSCc2cc(CSCCNC(=O)CCP(=O)(O)CN3CCN(CP(=O)(O)CO)CCN(CP(=O)(O)CO)CC3)cc(c2)CSCC(C(=O)O)NC(=O)[C@H](Cc2ccccc2)NC(=O)[C@H](CCC(N)=O)NC(=O)[C@H]([C@@H](C)O)NC(=O)[C@@H]2CCCN2C(=O)[C@@H]2CCCN2C1=O (stereo partly drawn) : ____
Result block: 9.2 %ID/g
